Tested on: Vero E6
Assay: cell viability relative to DMSO; higher = less toxic
Conditions: 72 h; 1000 nM
Measured endpoint: cell viability (%)
Report as a plain number; the unit % is understood.

Previously resolved entries follow.
| Molecule | cell viability [%] |
| --- | --- |
| CC(C)(C)c1[nH]cnc1/C=c1\[nH]c(=O)/c(=C/c2ccccc2)[nH]c1=O | 11.7 |
| CN(C)CCOC(=O)C(c1ccccc1)C1(O)CCCC1 (stereo unspecified) [cyclopentolate] | 101 |
| O=c1ccn([C@@H]2O[C@H](COP(=O)(O)OP(=O)(O)OP(=O)(O)O)[C@@H](O)[C@H]2O)c(=O)[nH]1 | 98.5 |
| CCCCCCCCCCCCCCCCCCO | 94.2 |
| Cc1nc2c([nH]1)-c1ccccc1N(C(=O)c1ccc(NC(=O)c3ccccc3-c3ccccc3)cc1)CC2 | 89.4 |

Switching to the query record.
Value of measured cell viability for the entry CCCCNc1c(C(=O)OCC)c(C)nc2c1cnn2CC [tracazolate] : 96.7
